# procedure.details: NCI Yeast Anticancer Drug Screen. Data for the rad50EPP+ strain (AID 151);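 note: 0% = growth of vehicle-treated control cultures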
# run.conditions: S. cerevisiae rad50 mutant strain, at 100.0 µM
About 79,000 compounds went through this panel and 15% of them were active in at least one assay; those are over-represented in the sample as a whole. Calls of active or inactive are those of the source. Cut-off read from the data, not from the text of the source: active = growth inhibition above about 70%; inactive = the rest.
Tick one outcome: 1 for active, 0 for inactive

molecule	group.label
COc1cc([C@@H]2c3cc4c(cc3C[C@@H]3COC(=O)C32)OCO4)cc(OC)c1O (some centres undefined)	0

Prompt: How did this test come out for O=C1C=CC(=O)C1(Br)Br ?
Completion: 1

Prompt: How did this test come out for O=C1C=C(CN(CCCl)CCCl)C(=O)C=C1CN(CCCl)CCCl ?
Completion: 0

Prompt: How did this test come out for CCc1cccc(C(C)C)c1NC1=C([n+]2ccc(C)cc2)C(=O)c2ccccc2C1=O ?
Completion: 0

* * *

# procedure.details: NCI Yeast Anticancer Drug Screen. Data for the bub3 strain (AID 167)
# run.conditions: S. cerevisiae bub3 mutant strain, at 5.0 µM (retest, dose inferred, filed as 0.5)
The panel holds about 79,000 compounds, 15% with a hit somewhere; the sample as a whole holds those more often. The source made the active and inactive calls. No stated cut-off is given here; in the data, active means growth inhibition above about 70%; inactive means the rest.
Tick one outcome: 1 (active), 0 (inactive)

Consider the following illustrative entries.
compound	group.label
ClCC[N+]12CC[N+](CCCl)(CC1)C2	1
O=P(Nc1cccc(Cl)c1)(Oc1ccccc1)N(CCCl)CCCl (configuration not stated)	0
[Cl][Hg][Cl].c1cnccn1	1
CC(=O)[O-].CC(=O)[O-].O=C(N/N=C/c1cc(Cl)cc(Cl)c1[OH2+])c1ccncc1.[Mn+2]	0
COC1=C(N2CC2)C(=O)C(OC)=C(N2CC2)C1=O	0
C[CH2][Sn]([Cl])([CH2]C)[O][Sn]([CH2]C)([CH2]C)[O][Sn]([Cl])([CH2]C)[CH2]C	0
O=[N+]([O-])C(Br)(Br)CCC(Br)(Br)[N+](=O)[O-]	1
CC1(C)C(=O)C=CC2(C)C1CC(O)C1(C)C2CCC2(C)C(c3ccoc3)OC(=O)C3OC321 (configuration not stated)	0

Prompt: How did this test come out for Nc1ccc2cc(Br)ccc2c1 ?
Completion: 0

Prompt: How did this test come out for O=[N+]([O-])c1ccc(C=Cc2ccc(C(F)(F)F)cc2)cc1.[C-]#[O+].[C-]#[O+].[C-]#[O+].[Cr] ?
Completion: 0

* * *

# procedure.details: NCI Yeast Anticancer Drug Screen. Data for the rad52 strain (AID 147);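 note: 0% = growth of vehicle-treated control cultures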
# run.conditions: S. cerevisiae rad52 mutant growth inhibition; at 1.2 µM
This is part of a sample that, as a whole, favours compounds with a hit. Of some 79,000 tested, about 15% had one in any assay. Active and inactive are the calls of the source. Rule as the data show it: active = growth inhibition above about 70%; inactive = the rest.
Tick one outcome: TRUE = active, FALSE = inactive

Consider the following illustrative entries.
molecule	group.label
Oc1ccc2nc3ccccc3nc2c1	FALSE
CCC1(O)C(=O)OCc2c1cc1n(c2=O)Cc2c-1nc1ccccc1c2OC (stereo not given)	TRUE
C[N+]1(CCCl)CC[N+](C)(CCCl)CC1 (stereo not given)	FALSE
CC1=C2C(=C[C@@](C)(CO)[C@@H]2O)C(=O)[C@](C)(O)C12CC2	FALSE
CS(=O)(=O)OCCN(CCOS(C)(=O)=O)c1ccc(C=O)cc1	FALSE

Prompt: How did this test come out for CCC(=O)OC1CCn2c1nc1c2C(=O)C(C)=C(N2CC2)C1=O (stereo not given) ?
Completion: FALSE
